Assay: in vitro
Conditions: human, hela cells, % viability
measurementLabel: viability at 28.5 h, 10 µM (%)
Express the result in % but write the number alone.

Answered examples (9):
Exercise: If you can, please state the reported viability at 28.5 h, 10 µM value of Cc1ccc(S(=O)(=O)N(CC(=O)O)c2ccc(Br)cc2)cc1 [CBK287125] .
Solution: 95.3

Exercise: Can you look up the measured viability at 28.5 h, 10 µM of CCS(=O)(=O)N1CCN(S(=O)(=O)c2ccccc2[N+](=O)[O-])CC1 [CBK264289] for me?
Solution: 99

Exercise: Suppose we examine the molecule COc1ccc(C)cc1NC(=O)C1CC(=O)Nc2ncnn21 (stereo not shown) [CBK270274] ; what viability at 28.5 h, 10 µM value has been reported?
Solution: 99.5

Exercise: For the molecule COc1cc(OC)cc(C(=O)Nc2nnc(C(F)(F)F)s2)c1 [CBK099828] , what viability at 28.5 h, 10 µM is on record?
Solution: 88.7

Exercise: Quick one: viability at 28.5 h, 10 µM for O=C(NCc1ccccc1)c1ccccc1NC(=O)C1CCCCC1C(=O)O (stereo not shown) [CBK269283] ?
Solution: 92

Exercise: Which viability at 28.5 h, 10 µM value belongs to C#CCNC(=O)C1CCN(c2nc3ccccc3n2CC)CC1 [CBK283923] ?
Solution: 89.4

Exercise: Can you share its viability at 28.5 h, 10 µM? I mean this molecule: Cc1cc(C)n2nc(CC(=O)N3CCCC3c3ccccn3)nc2n1 (stereo not shown) [CBK304408]
Solution: 90.8

Exercise: Query: viability at 28.5 h, 10 µM; subject: Cn1c(=O)n(CC(=O)O)c(=O)c2c1nc(Br)n2Cc1ccccc1 [CBK026617]
Solution: 94.8

Exercise: Entry under review: Cc1ncsc1CCOc1cc(C(F)(F)F)ccn1 [CBK115785] . Reported viability at 28.5 h, 10 µM?
Solution: 100

Now take the following molecule into account.
Exercise: Would you mind telling me what viability at 28.5 h, 10 µM value was observed for Cc1nnc(N2CCn3nc(C(O)Cc4ccccc4)cc3C2)s1 (stereo not shown) [CBK307152] ?
Solution: 86
